assay: soluble on expression in E. coli; label from the status in PepcDB or PDB records
ENDPOINT_LABEL: soluble on expression in E. coli

SEQUENCE_INPUT	ENDPOINT_LABEL	REPORTED_VALUE
MGSDKIHHHHHHMKCSKCSAEAIYYAKYNGLYLCRDHFNEMIEGRVKKEIRKQVEFHGDDVTISVALSGGKDSSVTLFLLHKILGNRKNMKIKAFTVDEGIDGYRPSGLESAKRLCTSLGIDHETISFYDSYGLTLDSIVKTNPVKIPCAYCGPLRRKLINEMADKQDADYVALGLNLDDYSQSILMNVAKGDFDRFIRMSPQTDRKVGLVRRIAPLRTILEKEVVLYAVTNDIPFDSSWCPYYSRAQRNVFREVVNKLSEENPSTKFAILKFFDRVRENITTGHEEVKLKRCKICGAPTERDVCTACSSLQEVNEMMAEH	soluble on expression in E. coli	not soluble
MDITNLIELETICLDLKAQTKDEALKELVEMLEAAGKLNSQSQFLADIWKREEIGNTGFDDGIAIPHAKSDAVAKPAVAVGISRNGIDYGAEDGELSDVFFMLASPDGDDHHHIEVLAQISTKIIEDGFVEKLKQAQSREEALEMLTDIQTQSNEFLPTSLEFASEPLSPWAQKLGRIKEH	soluble on expression in E. coli	not soluble

----------
assay: soluble on expression in E. coli; label from the status in PepcDB or PDB records
ENDPOINT_LABEL: soluble on expression in E. coli

A selection of reference data follows.
SEQUENCE_INPUT	ENDPOINT_LABEL	REPORTED_VALUE
MSLTFEEKLSQMYNEIANEISGMIPVEWEKVYTIAYVDDEGGEVVFNYTKPGSEDLNYYSDIPKDCNVSKDIFKNSWFKVYRMFDELRETFKKEDLEPWTSCEFDFTRKGNLKVSFDYIDWIKLGFGPSGKENYYMYKKFGILPDMEYEMEEIRAVEKYVKEEGHHHHHH	soluble on expression in E. coli	soluble
MGDYDYLIKFLALGDSGVGKTSFLHRYTDNTFTGQFISTVGIDFKEKKVVYKSSRGGFGGRGQRVLLQLWDTAGQERFRSLTTAFFRDAMGFILIFDITNEQSFLNIRDWLSQLKVHAYCEQPDIIICGNKADLENRRQVSTARAKQLADQLGLPYFETSACTSTNVEKSVDCLLDLVMQRIQQSVETSSLPLSECRGVSLDGDPSAASSYCANC	soluble on expression in E. coli	not soluble
MKLEVLPLDQKTFSAYGDVIETQEREFFHINNGLVERYHDLAKVEVLEQDRTLISINRAQPAAMPIVVHELERHPLGTQAFVPMNGEAFVVIVALGDDKPDLSTLRAFISNGRQGVNYHRNVWHHPLFAWQTVTDFLTVDRGGSDNCDVESIPTHELCFALEHHHHHH	soluble on expression in E. coli	soluble
MSLKIGIVGPGAIGLLYTFYLQKSNQDVTLFTRTAKQAEELNETGVTCIRDGRCETVYPPVLPIESMVAQNLDYIFISVKQYHIDDVLPFVEGASSLIFLQNGMSHLQKMLKIGSENIAVGIVEHGAKKEGGHIVHHTGIGVTKFGVVCGQSIHFKKIFRYFPVTYFPVQIETDWEEIMHKKLVVNVCINPLTALLGVKNGELITNRFFYQMMEQVFQEVAFLIRGEKEMVWQMVRNVCEGTSRNTSSMLADVRANRQTEINAIVGYVLEEAKKQQLPVPTLQFLFDAIKGLETREGHHHHHH	soluble on expression in E. coli	not soluble
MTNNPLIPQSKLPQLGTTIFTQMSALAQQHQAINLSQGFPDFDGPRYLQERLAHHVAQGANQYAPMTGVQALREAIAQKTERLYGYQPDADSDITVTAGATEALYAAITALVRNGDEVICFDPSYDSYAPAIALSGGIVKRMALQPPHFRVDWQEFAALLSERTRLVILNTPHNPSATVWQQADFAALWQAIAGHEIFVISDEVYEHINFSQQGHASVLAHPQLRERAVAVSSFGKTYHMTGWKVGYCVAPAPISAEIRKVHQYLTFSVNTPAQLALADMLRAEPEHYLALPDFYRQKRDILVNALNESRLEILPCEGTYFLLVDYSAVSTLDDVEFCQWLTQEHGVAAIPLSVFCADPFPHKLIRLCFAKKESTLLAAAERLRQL	soluble on expression in E. coli	soluble

May I ask what soluble on expression in E. coli has been recorded for MFVFDATPLIYLAKAERLSLLSRLDASRLIPQRVYEEVVTVGLDAGYPDARRIEQSVEEGTFDVVSVPETTLFDRLSGNPNVSDADVAVLALAADHGATAVMDDAYGRDIAAVEAIETRGTAYLVLSLVRDGELEADDARETLEAMLDAGWHCSPSLYSKLLSKLEELAVGGADNRLEHHHHHH ? not soluble
